system: DU-145 prostate; test: NCI tumour cell line growth inhibition, 48 h
observation_type: TGI (µM)
One number for each entry, in µM.

{"cpd_smiles": "NC(N)=N/N=C/c1c(-c2ccc(Cl)c([N+](=O)[O-])c2)nc2sc3ccccc3n12", "experimental_system": "DU-145 prostate", "quantitative_readout": 14.8}
{"cpd_smiles": "O=C(OC[C@@H]1CO1)c1cccc2c(=O)c3ccccc3[nH]c12", "experimental_system": "DU-145 prostate", "quantitative_readout": 1.29}

Which measured TGI value corresponds to O=C1/C(=C/c2ccc(Cl)cc2)Oc2ccccc21 ?
40.3

---

tested on: BT-549 breast; assay: NCI tumour cell line growth inhibition, 48 h
observation_type: TGI

Solved entries (count: 4):
{"compound": "C#Cc1cccc(NC(=O)C2CCCN(C(=O)CCl)C2)c1 (stereo not given)", "observation_type": "TGI", "result": "> 82.5 µM"}
{"compound": "CC(=O)C(C(C)=O)[C@H]1OC(C)(C)O[C@H]1[C@H]1COC(C)(C)O1", "observation_type": "TGI", "result": "90.5 µM"}
{"compound": "NC(N)=NCCCC(NC(=O)c1c2ccccc2nc2ccccc12)C(=O)O (stereo not given)", "observation_type": "TGI", "result": "> 100 µM"}
{"compound": "COc1cc(N(CCC#N)CCC#N)ccc1/C(N=Nc1ccc(C(=O)O)cc1)=N/NC(=O)c1cc(Br)ccc1O", "observation_type": "TGI", "result": "> 150 µg/mL"}

Which measured TGI value corresponds to C=C1CC/C=C(\C)CC[C@H](C(=C)C)[C@@H](O)/C=C(/CO)CCC1O (stereo not given in full) ?
> 100 µM
